System: KATO III stomach cancer cell line
procedure-details: cells
measurement-context: Homo sapiens, 72 h
Description: Antiproliferative activity against FGFR2 amplified human KATO III cells measured after 3 days by MTT assay
pIC50: −log10 of the molar value.
observable: pIC50

C[C@@H](Oc1ccc2[nH]nc(/C=C/c3cnn(CCNC(=O)/C=C/C(=O)c4ccccc4)c3)c2c1)c1c(Cl)cncc1Cl ... 7.81
C[C@@H](Oc1ccc2[nH]nc(/C=C/c3cnn(CCNC(=O)CNc4ccc5c(c4)C(=O)N(C4CCC(=O)NC4=O)C5=O)c3)c2c1)c1c(Cl)cncc1Cl (stereo partly specified) ... 7.33
C[C@@H](Oc1ccc2[nH]nc(/C=C/c3cnn(CCNC(=O)CNc4cccc5c4C(=O)N(C4CCC(=O)NC4=O)C5=O)c3)c2c1)c1c(Cl)cncc1Cl (stereo partly specified) ... 7.65
C[C@@H](Oc1ccc2[nH]nc(/C=C/c3cnn(CCNC(=O)CCCCNc4ccc5c(c4)C(=O)N(C4CCC(=O)NC4=O)C5=O)c3)c2c1)c1c(Cl)cncc1Cl (stereo partly specified) ... 7.70
C[C@@H](Oc1ccc2[nH]nc(/C=C/c3cnn(CCNC(=O)CCCCCNc4cccc5c4C(=O)N(C4CCC(=O)NC4=O)C5=O)c3)c2c1)c1c(Cl)cncc1Cl (stereo partly specified) ... 8.31

###

procedure-details: Tmax in overnight fasted mouse at 10 mg/kg, po administered as single dose by LC-MS/MS analysis
Format: ADME, organism-based
measurement-context: in vivo
observable: Tmax (min)

C[C@@H](Oc1ccc2[nH]nc(/C=C/c3cnn(CCNC(=O)CCCCCNc4ccc5c(c4)C(=O)N(C4CCC(=O)NC4=O)C5=O)c3)c2c1)c1c(Cl)cncc1Cl (stereo partly specified) ... 30

###

procedure-details: Cmax in overnight fasted mouse at 1 mg/kg, iv administered as single dose by LC-MS/MS analysis
Format: ADME, organism-based
measurement-context: in vivo
observable: Cmax (ng/mL)

C[C@@H](Oc1ccc2[nH]nc(/C=C/c3cnn(CCNC(=O)CCCCCNc4ccc5c(c4)C(=O)N(C4CCC(=O)NC4=O)C5=O)c3)c2c1)c1c(Cl)cncc1Cl (stereo partly specified) ... 1940

###

procedure-details: Half life in overnight fasted mouse at 1 mg/kg, iv administered as single dose by LC-MS/MS analysis
Type: ADME, organism-based
measurement-context: in vivo
observable: half-life (min)

C[C@@H](Oc1ccc2[nH]nc(/C=C/c3cnn(CCNC(=O)CCCCCNc4ccc5c(c4)C(=O)N(C4CCC(=O)NC4=O)C5=O)c3)c2c1)c1c(Cl)cncc1Cl (stereo partly specified) ... 4.14

###

experimental-target: Fibroblast growth factor receptor 1 (Homo sapiens, UniProt P11362)
Sequence (P11362 whole entry): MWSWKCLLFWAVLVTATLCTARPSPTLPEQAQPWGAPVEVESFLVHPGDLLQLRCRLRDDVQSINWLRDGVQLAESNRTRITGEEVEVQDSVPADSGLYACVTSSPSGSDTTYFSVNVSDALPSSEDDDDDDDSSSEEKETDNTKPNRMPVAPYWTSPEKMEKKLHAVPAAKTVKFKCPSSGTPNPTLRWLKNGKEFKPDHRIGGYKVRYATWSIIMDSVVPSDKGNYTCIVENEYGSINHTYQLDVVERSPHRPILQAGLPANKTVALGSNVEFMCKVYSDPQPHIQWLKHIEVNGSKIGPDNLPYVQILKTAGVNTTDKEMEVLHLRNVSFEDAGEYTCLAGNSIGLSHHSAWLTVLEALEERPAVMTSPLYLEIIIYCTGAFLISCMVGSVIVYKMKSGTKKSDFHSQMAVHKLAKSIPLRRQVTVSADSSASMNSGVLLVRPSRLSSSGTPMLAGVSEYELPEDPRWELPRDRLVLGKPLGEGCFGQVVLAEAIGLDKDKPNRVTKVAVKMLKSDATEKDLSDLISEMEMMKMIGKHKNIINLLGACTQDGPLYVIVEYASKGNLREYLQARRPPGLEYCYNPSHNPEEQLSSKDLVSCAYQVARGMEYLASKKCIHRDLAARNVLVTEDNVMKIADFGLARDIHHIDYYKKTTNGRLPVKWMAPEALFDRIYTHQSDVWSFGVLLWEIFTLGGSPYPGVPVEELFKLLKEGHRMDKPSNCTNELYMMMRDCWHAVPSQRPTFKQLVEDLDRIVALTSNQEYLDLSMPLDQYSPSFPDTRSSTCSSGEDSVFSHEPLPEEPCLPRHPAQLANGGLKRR
observable: IC50 (nM)

C[C@@H](Oc1ccc2[nH]nc(/C=C/c3cnn(CCNC(=O)CCCCCNc4ccc5c(c4)C(=O)N(C4CCC(=O)NC4=O)C5=O)c3)c2c1)c1c(Cl)cncc1Cl (stereo partly specified) ... 1.47

###

procedure-details: Cmax in overnight fasted mouse at 10 mg/kg, po administered as single dose by LC-MS/MS analysis
Type: ADME, organism-based
measurement-context: in vivo
observable: Cmax (ng/mL)

C[C@@H](Oc1ccc2[nH]nc(/C=C/c3cnn(CCNC(=O)CCCCCNc4ccc5c(c4)C(=O)N(C4CCC(=O)NC4=O)C5=O)c3)c2c1)c1c(Cl)cncc1Cl (stereo partly specified) ... 19.4

###

procedure-details: AUC (0 to t) in overnight fasted mouse at 1 mg/kg, iv administered as single dose by LC-MS/MS analysis
Assay type: ADME, organism-based
measurement-context: in vivo
observable: AUC(0-t)

C[C@@H](Oc1ccc2[nH]nc(/C=C/c3cnn(CCNC(=O)CCCCCNc4ccc5c(c4)C(=O)N(C4CCC(=O)NC4=O)C5=O)c3)c2c1)c1c(Cl)cncc1Cl (stereo partly specified) ... 0.151 µg·h/mL

Reference source: ChEMBL document CHEMBL5579838
